Test system: Myzus persicae
Test: Myzus persicae - spray test
Assay type: in vivo
Conditions: foliar, 120 h, Chinese cabbage leaf disks, all instars, after 5 days
measured.metric: mortality at 500 g/ha (%)
Give bare numbers, in %.

Example results:
CC(NC(=O)c1cc(Cl)cc(Br)c1)c1ncnn1-c1ncccn1 (centres unmarked)	90
C[C@@H](c1ncnn1-c1ncccn1)N(CC1CC1)C(=O)c1cc(Cl)cc(C(F)(F)F)c1	100
C[C@@H](c1ncnn1-c1ncccn1)N(CC(F)F)C(=O)c1cc(Cl)cc(C(F)(F)F)c1	100
CC(c1ncnn1-c1ncccn1)N(CC(F)F)C(=O)c1cccc(C(F)(F)F)c1 (centres unmarked)	90

Next:
Using the record for C[C@H](NC(=O)c1cncc(Br)c1)c1ncnn1-c1ncccn1 , report its mortality at 500 g/ha. 90
